Provenance of the data: patent US20200002405A1

Molecular target: T1, LASV Josiah (lineage IV) glycoprotein, full-length GP (Lassa virus, Josiah strain, UniProt P08669 2-491)
T1 sequence: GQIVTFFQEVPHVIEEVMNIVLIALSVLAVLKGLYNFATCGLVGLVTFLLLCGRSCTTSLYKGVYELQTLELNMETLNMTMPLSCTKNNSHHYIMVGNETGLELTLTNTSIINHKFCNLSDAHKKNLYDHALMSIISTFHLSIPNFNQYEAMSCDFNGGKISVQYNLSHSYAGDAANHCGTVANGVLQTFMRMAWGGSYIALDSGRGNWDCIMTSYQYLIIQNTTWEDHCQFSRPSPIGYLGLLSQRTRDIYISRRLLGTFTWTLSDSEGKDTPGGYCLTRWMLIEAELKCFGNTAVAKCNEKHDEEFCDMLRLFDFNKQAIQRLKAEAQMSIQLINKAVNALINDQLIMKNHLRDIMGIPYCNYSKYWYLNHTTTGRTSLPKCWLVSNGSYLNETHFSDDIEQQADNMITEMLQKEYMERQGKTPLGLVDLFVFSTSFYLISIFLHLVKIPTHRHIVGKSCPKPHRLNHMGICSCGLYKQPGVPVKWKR
Assay: cell-based or functional assay
READOUT LABEL: IC80 (neutralization)

- BINDER: "8.11G (antibody, V domains shown) VH: QVQLQESGPGLVKPSETLSLTCSISGVSTRNYYWSWIRQSPGKGLEWIGYIFNIGTTNYNPSLKSRLTISVDTSKNQFSLKITSVTAADTAVYYCASGFEYGDYTFDYWGQGTPVTVSS VL: EIVLTQSPATLSVSPGGRASLSCRASQSIGDKLSWYQQKPGQAPRLVIYGAYTRATDISPRFSGSRSGTDFNLTISRMQSGDFAVYFCQQYENWPRTFGQGTKLEIKR"
  IC80 (neutralization): "> 10 µg/mL"

Batch: IC80 (neutralization) for all items listed.
1. 37.2G (antibody, V domains shown) VH: EVQLVESGGGLVKPGGSRRLSCAASGFTFSRDTMTWVRQAPGKGLEWVASISSGSSDINYADSVKGRFTISRDNGKNSLYLHMNSLRADDTAIYYCARDPRSGISGRYGMDVWGQGTTVTVSS VL: DIVLTQSPGTLSLSPGERATLSCRASQSVNSIFLAWYQQKPGQAPRLLIYGASSRATGIPDRFSGSGSGTDFTLTISRLEPEDFAVYYCQQYHSSPKLTFGGGTKVEIKR
2. 10.4B (antibody) VH: DQVQLVQSGGGVVQPGRSLRVSCVTSGFNFRAYGMHWVRQIPGKGLEWVADIWSAETNRHYADSVKGRFTISRDNSKSTLYLQMNSLRAEDTGVYFCAKARPGYDYVVDLWGQGTLVIVSSASTKGPSVFPLAPCSRSTSGGTAALGCLVKDYFPEPVTVSWNSGALTSGVHTFPAVLQSSGL VL: DEIVLTQSPSSLSASVGDRVTITCRASRDINTYLGWFQQRPGKAPKSLIYGASNLQNGVPSRFSGSGSGTYFTLTINGLQTEDFATYYCQQYSIYPLSLGGGTKADMKRTVAAPSVFIFPPSDEQLKSGTASVVCLLNNFYPREAKVQWKVDNALQSGNSQESVTEQDSKDSTYSLSSTLTLSKADYEKHKVYACEVTHQGLSSP

Reply |
1. 1.78 µg/mL
2. > 10 µg/mL
